Overview of reported RP-LC retention time across a group of molecules:
EXPERIMENTAL_PROTOCOL: gradient 5% acetonitrile 3 min, to 50% in 2 min, to 85% in 15 min, held 3 min, 100 µL/min
CONDITION: column: Zorbax Extend-C18 2.1 x 50 mm; eluents: water / acetonitrile, 0.1% formic acid
Show the value, then the unit it is measured in.

Study these solved cases before continuing.
INSERT INTO results (molecule, measurement) VALUES
  ('COc1cccc(-c2cc(C3CCN(C(=O)NC4CCCC4)CC3)[nH]n2)c1', '790 s'),
  ('Cc1ccc(C)c(-c2coc(-c3ccc(NC(=O)COc4ccc(F)cc4)cc3)n2)c1', '1310 s'),
  ('O=C(C1CCCO1)N1CCn2c(nnc2-c2ccccc2)C1 (stereo not given)', '608 s');

For the molecule CCCCNC(=O)C1CCN(C(=O)c2ncn3c2COC(c2ccc(F)cc2)C3)CC1 (stereo not given) , report RP-LC retention time.
722 s

For the molecule Cc1ccc(CNC(=O)C2CCN(C(=O)N3CCOc4ccc(Cl)cc43)CC2)cc1 , report RP-LC retention time.
919 s

For the molecule Cc1nnc(N2CCCC(C(=O)NCCCN3CCCCCC3)C2)c2nn(-c3ccccc3)c(C)c12 (stereo not given) , report RP-LC retention time.
586 s

For the molecule CC1=C(C(=O)Nc2cccc(C(=O)N3CCN(c4ccccn4)CC3)c2)SCCO1 , report RP-LC retention time.
612 s

For the molecule Cc1nnsc1C(=O)NCC1(O)CCCC1 , report RP-LC retention time.
602 s

For the molecule O=C(NCc1cccc(F)c1)c1cn2c(n1)CCCC2 , report RP-LC retention time.
584 s

For the molecule CCCCOC(=O)CC1C(=O)NCCN1C(=O)c1cc(Br)ccc1OCC (stereo not given) , report RP-LC retention time.
841 s

----------
Overview of reported RP-LC retention time across a group of compounds:
EXPERIMENTAL_PROTOCOL: gradient 5% acetonitrile 3 min, to 50% in 2 min, to 85% in 15 min, held 3 min, 100 µL/min
CONDITION: column: Zorbax Extend-C18 2.1 x 50 mm; eluents: water / acetonitrile, 0.1% formic acid
Show the value, then the unit it is measured in.

Study these solved cases before continuing.
INSERT INTO results (compound, value_type, measurement) VALUES
  ('Cc1nc(N2CCCC2)cc(N2CCN(C(=O)c3ccccc3Br)CC2)n1', 'RP-LC retention time', '651 s'),
  ('CC1CCN(S(=O)(=O)c2ccc3nn(Cc4cc(F)cc(F)c4)c(=O)n3c2)CC1', 'RP-LC retention time', '1040 s'),
  ('Cc1ccc(C(C)NC(=O)C2CCN(c3ccc4nncn4n3)CC2)cc1 (stereo not given)', 'RP-LC retention time', '736 s');

For the compound CNC(=O)c1cc(-c2ccc(OC)cc2)n[nH]1 , report RP-LC retention time.
583 s

For the compound Cc1cc(F)ccc1NC(=O)c1cnn2c1CCCC2 , report RP-LC retention time.
720 s

For the compound Cc1nc2c(sc3nc(-c4ccccc4)ccc32)c(=O)n1CC(=O)Nc1ccc(F)cc1Cl , report RP-LC retention time.
1090 s

For the compound Cc1ccc(Cn2c(N3CCCC(C(=O)Nc4cccc(C)c4)C3)nc3ccsc3c2=O)cc1 (stereo not given) , report RP-LC retention time.
1080 s

For the compound CCC(=O)NCC12CCCC=C1N(C)C(=O)CC2 (stereo not given) , report RP-LC retention time.
648 s

For the compound Cc1ccc(-c2nc(N3CCOCC3)ncc2C(=O)O)cc1 , report RP-LC retention time.
770 s

For the compound CCN1CCN(c2ncc3c(n2)CCN(Cc2cccc(Br)c2)C3)CC1 , report RP-LC retention time.
550 s

For the compound COCCN1C(=O)[C@H]2CN(Cc3cccnc3)C[C@H]2C1=O , report RP-LC retention time.
528 s

For the compound CSc1nc2cc(Oc3cccc(Cl)c3Cl)c(Cl)cc2[nH]1 , report RP-LC retention time.
1080 s

For the compound CCn1ccc2sc(C)c(C(=O)O)c2c1=O , report RP-LC retention time.
702 s

For the compound COc1cccc(N2CCN(C(=O)C3CCN(C(=O)C4Sc5ccccc5NC4=O)CC3)CC2)c1 (stereo not given) , report RP-LC retention time.
709 s

For the compound COc1cc(OC)cc(N2C(=O)CC(c3ccc(OC)c(OC)c3)CC2=O)c1 , report RP-LC retention time.
833 s

For the compound Cc1ccc(C)n1-c1c(C(=O)N2CCN(c3ccccn3)CC2)sc2ncccc12 , report RP-LC retention time.
690 s

For the compound Cc1ccc(Cl)cc1NC(=O)CC1COc2ccccc2NC1=O (stereo not given) , report RP-LC retention time.
767 s

For the compound CCS(=O)(=O)N1CCCc2cc(C(=O)NCCCOC)ccc21 , report RP-LC retention time.
700 s

----------
EXPERIMENTAL_PROTOCOL: gradient 5% acetonitrile 3 min, to 50% in 2 min, to 85% in 15 min, held 3 min, 100 µL/min
CONDITION: column: Zorbax Extend-C18 2.1 x 50 mm; eluents: water / acetonitrile, 0.1% formic acid
Hi! Just check whether RP-LC retention time is below 800 s. Below gives 1.0, equal or above gives 0.0.

INSERT INTO assay_data (compound, classification) VALUES
  ('O=C(CSc1ccc(F)cc1)NCC1CCN(Cc2cccs2)CC1', 1.0);

API: query returns whether the compound falls strictly under 800 s in RP-LC retention time. Query: O=C(c1sc2cccc(F)c2c1Cl)N1CCN(c2ncccn2)CC1
0.0

API: query returns whether the compound falls strictly under 800 s in RP-LC retention time. Query: CC1CC(C)CN(CCCNC(=O)CCCOc2cc(=O)n(C)c3ccccc23)C1 (stereo not given)
1.0

API: query returns whether the compound falls strictly under 800 s in RP-LC retention time. Query: COC(=O)CNC(=O)NCCn1c(-c2ccccc2)nc2cccnc21
1.0

API: query returns whether the compound falls strictly under 800 s in RP-LC retention time. Query: CCc1cccc(NC(=O)Cn2nc3cc(C)nc(Nc4ccc(C)cc4)n3c2=O)c1
0.0

API: query returns whether the compound falls strictly under 800 s in RP-LC retention time. Query: O=C(Cc1nnc(-c2cccc(Br)c2)o1)NCc1ccc(F)cc1Cl
0.0

API: query returns whether the compound falls strictly under 800 s in RP-LC retention time. Query: CC1=C(c2ccc(C)cc2)S(=O)(=O)N=C1N1CCC(NC(=O)CCC(C)C)CC1
0.0

API: query returns whether the compound falls strictly under 800 s in RP-LC retention time. Query: COC(=O)c1ccc(C(=O)NCCN2CCN(c3ccc(F)cc3)CC2)cc1
1.0

----------
Overview of reported RP-LC retention time across a group of compounds:
EXPERIMENTAL_PROTOCOL: gradient 5% acetonitrile 3 min, to 50% in 2 min, to 85% in 15 min, held 3 min, 100 µL/min
CONDITION: column: Zorbax Extend-C18 2.1 x 50 mm; eluents: water / acetonitrile, 0.1% formic acid
Dear colleague, please return just the value in s, with no unit written.

Study these solved cases before continuing.
INSERT INTO assay_data (compound, value_type, unit_of_measure, measurement) VALUES
  ('COc1cccc(NC(=O)C2CCN(c3cc(N4CCCCC4)ncn3)CC2)c1', 'RP-LC retention time', 's', 708),
  ('O=c1c(NCc2ccccc2Cl)nc2ccncc2n1Cc1ccccc1', 'RP-LC retention time', 's', 747),
  ('COc1ccc(Cl)cc1C(=O)N1CCN(c2cc(-n3nc(C)cc3C)nc(C)n2)CC1', 'RP-LC retention time', 's', 988);

Let us examine a further case.
For the compound CC1Oc2ccc(S(=O)(=O)N3CCC(C(=O)Nc4ccccc4F)CC3)cc2NC1=O (centres undefined) , report RP-LC retention time.
761

----------
EXPERIMENTAL_PROTOCOL: gradient 5% acetonitrile 3 min, to 50% in 2 min, to 85% in 15 min, held 3 min, 100 µL/min
CONDITION: column: Zorbax Extend-C18 2.1 x 50 mm; eluents: water / acetonitrile, 0.1% formic acid
VALUE_TYPE: RP-LC retention time (s)
Dear colleague, please return just the value in s, with no unit written.

For the compound C=CCN1C(=O)COc2ccc(-c3nc(NC(C)=O)sc3C)cc21 , report RP-LC retention time.
787

For the compound Cn1c(-c2cccc(C(=O)NCc3cc(F)ccc3F)c2)nc2cccnc21 , report RP-LC retention time.
726

For the compound COc1ccc(N2CCN(C(=S)Nc3ccc4nc(N5CCN(C)CC5)cc(C)c4c3)CC2)cc1 , report RP-LC retention time.
580

----------
EXPERIMENTAL_PROTOCOL: gradient 5% acetonitrile 3 min, to 50% in 2 min, to 85% in 15 min, held 3 min, 100 µL/min
CONDITION: column: Zorbax Extend-C18 2.1 x 50 mm; eluents: water / acetonitrile, 0.1% formic acid
VALUE_TYPE: RP-LC retention time (s)
Dear colleague, please return just the value in s, with no unit written.

Study these solved cases before continuing.
INSERT INTO results (compound, value_type, unit_of_measure, measurement) VALUES
  ('CN(C)c1ccc(N2C=C(C(=O)N3CCOCC3)S(=O)(=O)c3ccc(Cl)cc32)cc1', 'RP-LC retention time', 's', 875),
  ('Cc1cc(NC(=O)c2ccc3c(c2)CCCC3)n(C(C)C)n1', 'RP-LC retention time', 's', 835),
  ('c1ccc(-c2noc(-c3ccc(NCc4ccc5c(c4)OCO5)nc3)n2)cc1', 'RP-LC retention time', 's', 1110),
  ('O=C(NCc1ccccc1C(F)(F)F)c1cnc(-c2ccccc2)nc1-c1ccncc1', 'RP-LC retention time', 's', 924);

For the compound O=C(NCc1ccco1)c1csc(-c2ccc(N3CCCCC3)nc2)n1 , report RP-LC retention time.
819

For the compound CN(C)C(=O)c1csc(S(=O)(=O)N2CCC(C(=O)Nc3ccc(F)cc3Cl)CC2)c1 , report RP-LC retention time.
792

For the compound CCCCNC(=O)COc1c(C)cc(Br)cc1C , report RP-LC retention time.
1000
